test system: Plasmodium berghei; assay: Antimalarial activity against luciferase-expressing Plasmodium berghei ANKA 676m1cl1 sporozoites infected in human HepG2A16 cells measured after 45 hrs by luciferase-luciferin based reporter assay; type: functional, organism-based; settings: ANKA 676m1cl1, HepG2A16, 45 h
Hi! Just check whether IC50 is below 50 nM. Below gives criterion met, equal or above gives criterion not met.

Sample answers from the record:
>  <structureNotation>
O=c1c2ccc(OCCCC(F)(F)F)cc2[nH]c2cc(F)cc(F)c12

>  <answerLabel>
criterion met

$$$$
>  <structureNotation>
CCN(CC)CCCCCOc1ccc2c(=O)c3ccc(Cl)cc3[nH]c2c1

>  <answerLabel>
criterion not met

$$$$
>  <structureNotation>
CCN(CC)CCOc1ccc2c(=O)c3ccc(Cl)cc3[nH]c2c1

>  <answerLabel>
criterion not met

$$$$
>  <structureNotation>
CCCN(CCC)CCOc1ccc2c(=O)c3c(Cl)c(Cl)ccc3[nH]c2c1

>  <answerLabel>
criterion met

$$$$

Now turn to the next compound.
Data request: IC50 strictly < 50 nM for this compound? "CCCN(CCC)CCOc1ccc2c(=O)c3ccc(Cl)cc3[nH]c2c1"
Data returned: criterion met

###

assay: Half life in mouse liver microsomes at 1 uM by LC-MS analysis; type: ADME, Microsome
experimentalEndpoint: half-life at 1 µM

>  <structureNotation>
CCN(CC)CCOc1ccc2c(=O)c3ccc(Br)cc3[nH]c2c1

>  <experimentalEndpoint>
half-life at 1 µM

>  <recordedResult>
> 1 h

$$$$
>  <structureNotation>
CCN(CC)CCCCCOc1ccc2c(=O)c3ccc(Cl)cc3[nH]c2c1

>  <experimentalEndpoint>
half-life at 1 µM

>  <recordedResult>
> 1 h

$$$$
>  <structureNotation>
CCN(CC)CCOc1ccc2c(=O)c3ccc(Cl)cc3[nH]c2c1

>  <experimentalEndpoint>
half-life at 1 µM

>  <recordedResult>
> 1 h

$$$$

Data request: # query: half-life at 1 µM of entry "CC(C)(C)NCCCCOc1ccc2c(=O)c3c(F)cc(F)cc3[nH]c2c1"
Data returned: > 1 h

###

Below: a set of entries, each annotated with reported selectivity ratio.
experiment: Selectivity index, ratio of IC50 for human HepG2 cells to IC50 for chloroquine-sensitive Plasmodium falciparum D6 infected in human erythrocytes; type: toxicity, cell-based; conditions: read-out: Ratio IC50

>  <structureNotation>
CC(C)(C)NCCCOc1ccc2c(=O)c3cc(Cl)ccc3[nH]c2c1

>  <selectivity ratio>
112

$$$$
>  <structureNotation>
CCCN(CCC)CCOc1ccc2[nH]c3ccc(Cl)c(Cl)c3c(=O)c2c1

>  <selectivity ratio>
128

$$$$
>  <structureNotation>
CCN(CC)CCOc1ccc2c(=O)c3ccc(C(F)(F)F)cc3[nH]c2c1

>  <selectivity ratio>
47

$$$$
>  <structureNotation>
CCN(CC)CCCCCOc1ccc2c(=O)c3ccc(Cl)cc3[nH]c2c1

>  <selectivity ratio>
58

$$$$
>  <structureNotation>
CCN(CC)CCCOc1ccc2c(=O)c3c(F)cc(F)cc3[nH]c2c1

>  <selectivity ratio>
1210

$$$$

Data request: # query: selectivity ratio of entry "CCN(CC)CCOc1ccc2c(=O)c3c(Cl)cc(Cl)cc3[nH]c2c1"
Data returned: 1630

Data request: # query: selectivity ratio of entry "CCCN(CCC)CCOc1ccc2[nH]c3cc(OC)cc(F)c3c(=O)c2c1"
Data returned: 37700

###

Below: a set of entries, each annotated with reported selectivity ratio.
experiment: Selectivity index, ratio of IC50 for human HepG2 cells to IC50 for chloroquine-sensitive Plasmodium falciparum D6 infected in human erythrocytes; format: toxicity, cell-based; details: read-out: Ratio IC50

Data request: # query: selectivity ratio of entry "CCN(CC)CCNc1ccc2c(=O)c3cc(F)c(OC)cc3[nH]c2c1"
Data returned: 239

Data request: # query: selectivity ratio of entry "CC(C)(C)NCCOc1ccc2c(=O)c3c(Cl)c(Cl)ccc3[nH]c2c1"
Data returned: 362

Data request: # query: selectivity ratio of entry "CCN(CC)CCOc1ccc2c(=O)c3ccc(Cl)cc3[nH]c2c1"
Data returned: 1140

Data request: # query: selectivity ratio of entry "CCCN(CCC)CCOc1ccc2[nH]c3cc(Cl)cc(OC)c3c(=O)c2c1"
Data returned: 1220

Data request: # query: selectivity ratio of entry "O=c1c2ccc(OCCCl)cc2[nH]c2ccc(Cl)c(Cl)c12"
Data returned: > 40000
